Attribution: ChEMBL document CHEMBL1221287

# ASSAYED TARGET: Carbonic anhydrase 5A, mitochondrial (Homo sapiens, UniProt P35218)
# Sequence (P35218 whole entry): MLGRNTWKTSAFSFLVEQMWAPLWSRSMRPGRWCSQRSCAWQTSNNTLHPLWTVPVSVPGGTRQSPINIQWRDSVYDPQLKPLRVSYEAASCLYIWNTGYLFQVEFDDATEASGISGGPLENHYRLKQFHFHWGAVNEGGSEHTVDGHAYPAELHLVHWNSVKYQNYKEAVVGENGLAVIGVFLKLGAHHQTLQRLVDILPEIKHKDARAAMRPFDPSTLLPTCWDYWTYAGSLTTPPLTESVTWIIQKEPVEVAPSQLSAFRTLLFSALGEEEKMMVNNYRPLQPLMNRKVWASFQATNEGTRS
ASSAY METRIC: pKi
Answers are plain numbers, as −log10 of the molar value.

Some compounds with recorded pKi:
COc1cc(/C=C/C(=O)CC(=O)/C=C/c2ccc(O)c(OC)c2)ccc1O; 4.99
Oc1ccc(/C=C/c2cc(O)cc(O)c2)cc1; 5.32
CC(CCc1ccc(O)cc1)NCCc1ccc(O)c(O)c1 (stereo not given); 6.14

Give the measured pKi of Oc1cc(O)c2c(c1)O[C@H](c1ccc(O)c(O)c1)[C@@H](O)C2 . 5.38

* * *

# pKi per entry for UniProt:P43166
# Sequence (P43166 whole entry): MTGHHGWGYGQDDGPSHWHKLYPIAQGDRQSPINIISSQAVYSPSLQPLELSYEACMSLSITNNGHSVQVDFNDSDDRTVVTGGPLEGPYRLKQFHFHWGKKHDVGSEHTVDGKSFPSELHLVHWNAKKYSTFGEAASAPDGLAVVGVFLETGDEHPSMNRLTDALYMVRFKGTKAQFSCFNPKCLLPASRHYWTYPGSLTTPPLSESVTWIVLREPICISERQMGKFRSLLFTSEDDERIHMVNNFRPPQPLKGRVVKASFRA
One number for each entry, as −log10 of the molar value.

Please review the entries below; each comes with its answer.
Oc1ccc(/C=C/c2cc(O)cc(O)c2)cc1; 5.36
Oc1cc(O)c2c(c1)O[C@H](c1ccc(O)c(O)c1)[C@@H](O)C2; 6.35
COc1cc(/C=C/C(=O)CC(=O)/C=C/c2ccc(O)c(OC)c2)ccc1O; 5.03

I'd like to know its pKi. The molecule in question is CC(CCc1ccc(O)cc1)NCCc1ccc(O)c(O)c1 (stereo not given) 5.37

* * *

# ASSAYED TARGET: UniProt Q9Y2D0
# Sequence (Q9Y2D0 whole entry): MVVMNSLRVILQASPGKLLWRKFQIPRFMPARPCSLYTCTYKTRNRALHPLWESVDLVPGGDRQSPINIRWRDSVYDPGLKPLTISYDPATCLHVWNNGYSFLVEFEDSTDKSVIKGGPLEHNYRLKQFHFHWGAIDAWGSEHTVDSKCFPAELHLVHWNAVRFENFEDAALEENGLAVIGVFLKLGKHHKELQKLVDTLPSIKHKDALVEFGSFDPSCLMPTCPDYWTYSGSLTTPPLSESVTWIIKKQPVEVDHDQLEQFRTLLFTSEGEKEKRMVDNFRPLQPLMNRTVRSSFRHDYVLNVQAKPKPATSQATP
ASSAY METRIC: pKi
Answers are plain numbers, as −log10 of the molar value.

These solved cases illustrate the format of a correct answer.
O=C(O)/C=C/c1ccccc1O; 3.24
CC(CCc1ccc(O)cc1)NCCc1ccc(O)c(O)c1 (stereo not drawn); 6.05

Please turn your attention to the following entry.
Notebook entry, UniProt Q9Y2D0 assay: pKi of Oc1cc(O)c2c(c1)O[C@H](c1ccc(O)c(O)c1)[C@@H](O)C2 = ? 5.40

* * *

# ASSAYED TARGET: Carbonic anhydrase 13 (Homo sapiens, UniProt Q8N1Q1)
# Sequence (Q8N1Q1 whole entry): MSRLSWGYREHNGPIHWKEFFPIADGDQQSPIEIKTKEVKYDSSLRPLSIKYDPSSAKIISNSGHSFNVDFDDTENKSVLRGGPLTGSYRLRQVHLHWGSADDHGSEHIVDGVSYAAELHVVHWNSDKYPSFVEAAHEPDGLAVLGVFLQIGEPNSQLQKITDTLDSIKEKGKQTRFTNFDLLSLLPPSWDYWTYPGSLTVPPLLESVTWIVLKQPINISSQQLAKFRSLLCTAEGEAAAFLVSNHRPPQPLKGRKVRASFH
Please provide measured Ki for the entries that follow.
Give bare numbers, in µM.

Oc1ccccc1; 697

I need Ki for every entry listed below, if you could help.
1. CC(CCc1ccc(O)cc1)NCCc1ccc(O)c(O)c1 (centres undefined)
2. Oc1ccc(/C=C/c2cc(O)cc(O)c2)cc1

1: 9.53; 2: 4.09

* * *

Here's what we have: pKi numbers for Carbonic anhydrase 9 (Homo sapiens, UniProt Q16790).
Numbers only, as −log10 of the molar value.

Past entries and their recorded results:
Oc1cc(O)c2c(c1)O[C@H](c1ccc(O)c(O)c1)[C@@H](O)C2 [CATECHIN]; 5.30
COc1cc(/C=C/C(=O)CC(=O)/C=C/c2ccc(O)c(OC)c2)ccc1O [CURCUMIN]; 5.39
CC(CCc1ccc(O)cc1)NCCc1ccc(O)c(O)c1 (stereo not given) [DOBUTAMINE]; 5.01

// next entry
Quick one: pKi of Oc1ccc(/C=C/c2cc(O)cc(O)c2)cc1 [RESVERATROL] ? 6.09

* * *

Record set of pKi for target or system Carbonic anhydrase 12 (Homo sapiens, UniProt O43570).
Give bare numbers, as −log10 of the molar value.

Solved entries:
Oc1ccc(/C=C/c2cc(O)cc(O)c2)cc1; 6.02
COc1cc(/C=C/C(=O)CC(=O)/C=C/c2ccc(O)c(OC)c2)ccc1O; 5.46

The record that follows has no pKi shown yet.
Quick one: pKi of CC(CCc1ccc(O)cc1)NCCc1ccc(O)c(O)c1 (centres undefined) ? 5.36
